- targetEntity: HLA-A*02:01 heavy chain / β2-microglobulin (human)
- testSummary: differential scanning fluorimetry
quantityKind: Tm of the peptide/HLA-A2 complex (°C)

INSERT INTO results (binder, quantitykind, result) VALUES
  ('LLLDDLLVSI [PRDX5 neoantigen peptide …]', 'Tm of the peptide/HLA-A2 complex', 55.3),
  ('ACDPHSGHFV [CDK4 neoantigen peptide …]', 'Tm of the peptide/HLA-A2 complex', 59.9),
  ('ALYGFVPVL [GANAB neoantigen peptide …]', 'Tm of the peptide/HLA-A2 complex', 61.7),
  ('TLLSQVNKV [CIT neoantigen peptide …]', 'Tm of the peptide/HLA-A2 complex', 53.2),
  ('FMPDFDLHL [AHNAK neoantigen peptide …]', 'Tm of the peptide/HLA-A2 complex', 60.1),
  ('FLLDEAIGL [SPOP neoantigen peptide …]', 'Tm of the peptide/HLA-A2 complex', 60.7),
  ('VLAKKLKFV [ACPP neoantigen peptide …]', 'Tm of the peptide/HLA-A2 complex', 56.8),
  ('VLENFTIFLV [TEAD1 neoantigen peptide …]', 'Tm of the peptide/HLA-A2 complex', 48.2);
